experiment: CCTE_Shafer_MEA_dev_spike_duration_mean: CCTE's Neural Network Formation Assay for Mean Spike Duration, Shafer Lab (AID 2284051);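 also: mean network spike duration pooled as area under curve over DIV 5 to 12 recordings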
Activity calls are given as the source filed them. The calls were made as follows: active = hit-call score of the fitted dose curve at least 0.9, where 1 is the maximum; inactive = score below 0.9.
Give one outcome, nothing more. List: active, inactive

Reference set (5 entries):
What was the test verdict on FC(F)(F)C(F)(F)C(F)(F)C(F)(F)C(F)(F)C(F)(F)CCI ?
inactive

Next molecule up: C[Si]1(C)O[Si](C)(C)O[Si](C)(C)O[Si](C)(C)O1
inactive

Next molecule up: O=c1[nH]cc(F)c(=O)[nH]1
active

Next molecule up: CC(C)c1ccc(C(=O)N=C(N)N)cc1S(C)(=O)=O
inactive

Next molecule up: Cc1cc(=O)[nH]c(=S)[nH]1
inactive

Could you now consider this next molecule?
What was the test verdict on CC(=O)Oc1ccccc1C(=O)O ?
inactive
